Cited source for all entries: patent US20240109881A1

Recorded ALE THP1 HTRF YMIN, one value per entry.
Molecular target: IRAK4 (Homo sapiens)
Construct: endogenous in cells; host or cells: THP-1 cells
Sequence (Q9NWZ3 whole entry): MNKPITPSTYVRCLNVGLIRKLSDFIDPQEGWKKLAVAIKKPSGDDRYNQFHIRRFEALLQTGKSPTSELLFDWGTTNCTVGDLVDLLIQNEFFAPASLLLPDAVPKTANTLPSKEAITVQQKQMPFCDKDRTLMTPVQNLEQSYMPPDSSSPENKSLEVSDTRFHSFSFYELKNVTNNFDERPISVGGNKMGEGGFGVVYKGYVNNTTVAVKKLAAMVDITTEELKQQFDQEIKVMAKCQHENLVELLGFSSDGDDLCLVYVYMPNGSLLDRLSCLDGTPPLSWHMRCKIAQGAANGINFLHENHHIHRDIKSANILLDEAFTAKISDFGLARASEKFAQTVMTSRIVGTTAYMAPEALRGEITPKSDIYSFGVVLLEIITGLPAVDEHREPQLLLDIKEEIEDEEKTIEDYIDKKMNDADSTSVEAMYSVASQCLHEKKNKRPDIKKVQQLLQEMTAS
Assay: ALE THP1 HTRF (Advanced Lipoxidation End Product THP1 Homogeneous Time Resolved Fluorescence)
Type: cell-based
Conditions: THP1 cells
Experimental: For Homogenous Time Resolved Fluorescence (HTRF) assays, a Cisbio HTRF kit was used, which included: Lysis Buffer #1 4×, Blocking Reagent #3 100×, 20× Antibody 1 (Anti-IRAK4 d2), 20× Antibody 2 (Anti-IRAK4 k), and Detection Buffer. 4× Lysis Buffer was stored at 4° C. […] Cells were lysed at room temperature for 45 min with shaking. […] The samples were analyzed by a plate reader (Envision, PerkinElmer) using the Desnor 384 HTRF program.
Recorded Metric: ALE THP1 HTRF YMIN (%)

- Compound: "N#Cc1cnc2c(cnn2-c2cc(NC3CC3)c(C(=O)NC3CCC(CCN4CCC(c5ccc(C6CCC(=O)NC6=O)cc5)CC4)CC3)cn2)c1 (stereo not drawn)"
  Val: 9.5
- Compound: "N#Cc1cnc2c(c1)ncn2-c1cc(NC2CCCC2)c(C(=O)N[C@H]2CC[C@H](CN3CCN(c4ccc5c(c4)C(=O)N(C4CCC(=O)NC4=O)C5=O)CC3)CC2)cn1 (stereo partly drawn)"
  Val: 37.6
- Compound: "C[C@H]1CN(c2ccc(C3CCC(=O)NC3=O)cc2)C[C@H](C)N1CCC1CCC(NC(=O)c2cnc(-n3ncc4cc(C#N)cnc43)cc2NC2CCCC2)CC1 (stereo partly drawn)"
  Val: 9.3
- Compound: "CC1(c2ccc(N3CCN(CCC4CCC(NC(=O)c5cnc(-n6ncc7cc(C#N)cnc76)cc5NC5CC5)CC4)CC3)cc2)CCC(=O)NC1=O (single isomer, unassigned)"
  Val: 7.4
- Compound: "C[C@H]1CN(CC[C@H]2CC[C@H](NC(=O)c3cnc(-n4ncc5cc(C#N)cnc54)cc3NC3CC3)CC2)CCN1c1ccc(C2CCC(=O)NC2=O)cc1 (stereo partly drawn)"
  Val: 11.0
- Compound: "O=C1CCC(c2ccc(NCC3CCN(C(=O)C4CCC(NC(=O)c5cnc(Nc6ccc7ncsc7c6)cc5NC5CCCC5)CC4)CC3)cc2)C(=O)N1 (stereo not drawn)"
  Val: 47.5
- Compound: "O=C1CCC(N2C(=O)c3ccc(N4CCN(C[C@H]5CC[C@H](NC(=O)c6cnc(Nc7ccc8ncsc8c7)cc6NC6CCCC6)CC5)CC4)cc3C2=O)C(=O)N1 (stereo partly drawn)"
  Val: 35.6
- Compound: "C[C@H](C#N)Nc1cc(-n2ncc3cc(C#N)c(N)nc32)ncc1C(=O)N[C@H]1CC[C@H](CCN2CCN(c3ccc(C4CCC(=O)NC4=O)cc3Cl)[C@H](C)C2)CC1 (stereo partly drawn)"
  Val: 5.5
- Compound: "N#Cc1cnn2c(-c3cc(NC4CC4)c(C(=O)N[C@H]4CC[C@H](CCN5CCN(c6ccc(C7CCC(=O)NC7=O)cc6)CC5)CC4)cn3)cnc2c1 (stereo partly drawn)"
  Val: 24.4
- Compound: "N#Cc1cnc2c(cnn2-c2cc(NCCF)c(C(=O)NC3CCC(CCN4CCN(c5ccc(C6CCC(=O)NC6=O)cc5)CC4)CC3)cn2)c1 (stereo not drawn)"
  Val: 10.7
- Compound: "N#Cc1cnc2c(cnn2-c2cc(NC3CCCC3)c(-c3cn([C@H]4CC[C@H](CN5CCC(C(=O)Nc6ccc(N7CCC(=O)NC7=O)cc6)CC5)CC4)nn3)cn2)c1"
  Val: 12.9
- Compound: "C[C@H](C#N)Nc1cc(-n2ncc3cc(C#N)cnc32)ncc1C(=O)N[C@H]1CC[C@H](CCN2C[C@H]3C[C@@H](C2)N3c2ccc(C3CCC(=O)NC3=O)cc2)CC1 (stereo partly drawn)"
  Val: 7.5
